target-under-test: panel of 442 kinases (Homo sapiens, UniProt P0C1S8)
Construct: purchased Ambit Biosciences (scanMAXX KINOMEscan)
Sequence (P0C1S8 whole entry): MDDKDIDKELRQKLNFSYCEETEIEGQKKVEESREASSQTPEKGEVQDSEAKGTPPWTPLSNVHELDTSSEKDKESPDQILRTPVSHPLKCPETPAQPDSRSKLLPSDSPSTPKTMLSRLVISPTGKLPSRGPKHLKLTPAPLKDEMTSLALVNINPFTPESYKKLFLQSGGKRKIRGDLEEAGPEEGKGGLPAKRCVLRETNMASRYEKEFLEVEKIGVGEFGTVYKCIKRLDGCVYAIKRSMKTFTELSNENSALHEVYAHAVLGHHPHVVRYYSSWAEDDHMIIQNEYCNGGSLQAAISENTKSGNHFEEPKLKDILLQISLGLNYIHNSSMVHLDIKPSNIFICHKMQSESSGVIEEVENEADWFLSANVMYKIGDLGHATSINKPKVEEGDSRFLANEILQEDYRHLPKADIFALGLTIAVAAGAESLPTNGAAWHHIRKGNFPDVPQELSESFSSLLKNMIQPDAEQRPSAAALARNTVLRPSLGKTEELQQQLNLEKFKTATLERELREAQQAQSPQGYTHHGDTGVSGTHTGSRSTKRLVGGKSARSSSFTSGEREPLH
assay-text: biochemical
Type: binding
condition: kinase WEE2; 1 µM; read-out: WEE2 (% of control at 1 µM)
experimental-readout: remaining activity at 1 µM (%)
Numeric answer only, unit % assumed.

Query: Send back panel of 442 kinases (Homo sapiens, UniProt P0C1S8) remaining activity at 1 µM of Nc1cc(C(F)(F)F)c(-c2cc(N3CCOCC3)nc(N3CCOCC3)n2)cn1 [Buparlisib] only.
Response: 100

Query: Send back panel of 442 kinases (Homo sapiens, UniProt P0C1S8) remaining activity at 1 µM of Cn1c(=O)n(-c2ccc(C(C)(C)C#N)cc2)c2c3cc(-c4cnc5ccccc5c4)ccc3ncc21 [Dactolisib] only.
Response: 100

Query: Send back panel of 442 kinases (Homo sapiens, UniProt P0C1S8) remaining activity at 1 µM of COc1ncc(-c2ccc3nccc(-c4ccnnc4)c3c2)cc1NS(=O)(=O)c1ccc(F)cc1F [Omipalisib] only.
Response: 84

Query: Send back panel of 442 kinases (Homo sapiens, UniProt P0C1S8) remaining activity at 1 µM of FC(F)c1nc2ccccc2n1-c1nc(N2CCOCC2)nc(N2CCOCC2)n1 [ZSTK474] only.
Response: 96

====

target-under-test: panel of 442 kinases (Homo sapiens, UniProt Q96PY6)
Construct: purchased Ambit Biosciences (scanMAXX KINOMEscan)
Sequence (Q96PY6 1-1258): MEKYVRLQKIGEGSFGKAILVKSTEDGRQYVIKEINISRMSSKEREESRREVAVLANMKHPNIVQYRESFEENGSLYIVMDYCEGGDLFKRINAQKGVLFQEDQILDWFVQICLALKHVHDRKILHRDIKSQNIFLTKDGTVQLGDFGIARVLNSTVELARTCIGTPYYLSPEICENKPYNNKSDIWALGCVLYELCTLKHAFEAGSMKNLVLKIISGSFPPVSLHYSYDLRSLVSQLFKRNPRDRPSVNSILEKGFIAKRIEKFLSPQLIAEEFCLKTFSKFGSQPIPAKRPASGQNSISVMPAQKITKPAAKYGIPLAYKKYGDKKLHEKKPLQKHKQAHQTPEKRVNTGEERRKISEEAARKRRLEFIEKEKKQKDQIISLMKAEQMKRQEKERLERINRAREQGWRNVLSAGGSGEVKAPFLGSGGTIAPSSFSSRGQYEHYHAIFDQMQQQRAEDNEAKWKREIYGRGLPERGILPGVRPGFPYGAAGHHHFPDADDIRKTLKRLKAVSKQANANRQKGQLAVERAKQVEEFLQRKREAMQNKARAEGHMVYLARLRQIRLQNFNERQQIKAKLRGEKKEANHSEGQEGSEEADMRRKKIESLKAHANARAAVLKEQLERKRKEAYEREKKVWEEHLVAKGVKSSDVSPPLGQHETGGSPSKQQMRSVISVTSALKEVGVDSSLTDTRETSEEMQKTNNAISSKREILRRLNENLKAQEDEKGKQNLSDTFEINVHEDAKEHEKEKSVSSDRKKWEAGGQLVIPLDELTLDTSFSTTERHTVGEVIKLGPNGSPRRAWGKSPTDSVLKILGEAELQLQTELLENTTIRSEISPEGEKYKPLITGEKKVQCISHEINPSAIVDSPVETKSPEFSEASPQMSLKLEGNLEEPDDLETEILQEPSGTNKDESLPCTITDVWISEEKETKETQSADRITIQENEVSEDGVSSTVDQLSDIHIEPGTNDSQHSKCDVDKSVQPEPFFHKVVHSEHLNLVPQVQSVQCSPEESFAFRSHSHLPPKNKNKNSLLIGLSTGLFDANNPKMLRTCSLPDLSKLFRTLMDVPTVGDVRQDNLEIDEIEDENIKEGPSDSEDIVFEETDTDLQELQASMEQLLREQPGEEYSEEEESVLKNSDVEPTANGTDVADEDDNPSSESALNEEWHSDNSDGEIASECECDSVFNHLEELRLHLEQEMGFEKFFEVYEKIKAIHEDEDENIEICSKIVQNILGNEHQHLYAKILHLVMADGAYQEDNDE
assay-text: biochemical
Format: binding
condition: kinase NEK1; 1 µM; read-out: % of control at 1 µM
experimental-readout: remaining activity at 1 µM

Query: Send back panel of 442 kinases (Homo sapiens, UniProt Q96PY6) remaining activity at 1 µM of Nc1cc(C(F)(F)F)c(-c2cc(N3CCOCC3)nc(N3CCOCC3)n2)cn1 only.
Response: 100%

Query: Send back panel of 442 kinases (Homo sapiens, UniProt Q96PY6) remaining activity at 1 µM of FC(F)c1nc2ccccc2n1-c1nc(N2CCOCC2)nc(N2CCOCC2)n1 only.
Response: 100%

Query: Send back panel of 442 kinases (Homo sapiens, UniProt Q96PY6) remaining activity at 1 µM of COc1ncc(-c2ccc3nccc(-c4ccnnc4)c3c2)cc1NS(=O)(=O)c1ccc(F)cc1F only.
Response: 87%

Query: Send back panel of 442 kinases (Homo sapiens, UniProt Q96PY6) remaining activity at 1 µM of Cn1c(=O)n(-c2ccc(C(C)(C)C#N)cc2)c2c3cc(-c4cnc5ccccc5c4)ccc3ncc21 only.
Response: 98%
